EXPERIMENTAL_SYSTEM: full-length ATR (Homo sapiens, UniProt Q13535)
Construct: Assays were carried out at 25° C. in the presence of 5 nM full-length ATR
Sequence (Q13535 whole entry): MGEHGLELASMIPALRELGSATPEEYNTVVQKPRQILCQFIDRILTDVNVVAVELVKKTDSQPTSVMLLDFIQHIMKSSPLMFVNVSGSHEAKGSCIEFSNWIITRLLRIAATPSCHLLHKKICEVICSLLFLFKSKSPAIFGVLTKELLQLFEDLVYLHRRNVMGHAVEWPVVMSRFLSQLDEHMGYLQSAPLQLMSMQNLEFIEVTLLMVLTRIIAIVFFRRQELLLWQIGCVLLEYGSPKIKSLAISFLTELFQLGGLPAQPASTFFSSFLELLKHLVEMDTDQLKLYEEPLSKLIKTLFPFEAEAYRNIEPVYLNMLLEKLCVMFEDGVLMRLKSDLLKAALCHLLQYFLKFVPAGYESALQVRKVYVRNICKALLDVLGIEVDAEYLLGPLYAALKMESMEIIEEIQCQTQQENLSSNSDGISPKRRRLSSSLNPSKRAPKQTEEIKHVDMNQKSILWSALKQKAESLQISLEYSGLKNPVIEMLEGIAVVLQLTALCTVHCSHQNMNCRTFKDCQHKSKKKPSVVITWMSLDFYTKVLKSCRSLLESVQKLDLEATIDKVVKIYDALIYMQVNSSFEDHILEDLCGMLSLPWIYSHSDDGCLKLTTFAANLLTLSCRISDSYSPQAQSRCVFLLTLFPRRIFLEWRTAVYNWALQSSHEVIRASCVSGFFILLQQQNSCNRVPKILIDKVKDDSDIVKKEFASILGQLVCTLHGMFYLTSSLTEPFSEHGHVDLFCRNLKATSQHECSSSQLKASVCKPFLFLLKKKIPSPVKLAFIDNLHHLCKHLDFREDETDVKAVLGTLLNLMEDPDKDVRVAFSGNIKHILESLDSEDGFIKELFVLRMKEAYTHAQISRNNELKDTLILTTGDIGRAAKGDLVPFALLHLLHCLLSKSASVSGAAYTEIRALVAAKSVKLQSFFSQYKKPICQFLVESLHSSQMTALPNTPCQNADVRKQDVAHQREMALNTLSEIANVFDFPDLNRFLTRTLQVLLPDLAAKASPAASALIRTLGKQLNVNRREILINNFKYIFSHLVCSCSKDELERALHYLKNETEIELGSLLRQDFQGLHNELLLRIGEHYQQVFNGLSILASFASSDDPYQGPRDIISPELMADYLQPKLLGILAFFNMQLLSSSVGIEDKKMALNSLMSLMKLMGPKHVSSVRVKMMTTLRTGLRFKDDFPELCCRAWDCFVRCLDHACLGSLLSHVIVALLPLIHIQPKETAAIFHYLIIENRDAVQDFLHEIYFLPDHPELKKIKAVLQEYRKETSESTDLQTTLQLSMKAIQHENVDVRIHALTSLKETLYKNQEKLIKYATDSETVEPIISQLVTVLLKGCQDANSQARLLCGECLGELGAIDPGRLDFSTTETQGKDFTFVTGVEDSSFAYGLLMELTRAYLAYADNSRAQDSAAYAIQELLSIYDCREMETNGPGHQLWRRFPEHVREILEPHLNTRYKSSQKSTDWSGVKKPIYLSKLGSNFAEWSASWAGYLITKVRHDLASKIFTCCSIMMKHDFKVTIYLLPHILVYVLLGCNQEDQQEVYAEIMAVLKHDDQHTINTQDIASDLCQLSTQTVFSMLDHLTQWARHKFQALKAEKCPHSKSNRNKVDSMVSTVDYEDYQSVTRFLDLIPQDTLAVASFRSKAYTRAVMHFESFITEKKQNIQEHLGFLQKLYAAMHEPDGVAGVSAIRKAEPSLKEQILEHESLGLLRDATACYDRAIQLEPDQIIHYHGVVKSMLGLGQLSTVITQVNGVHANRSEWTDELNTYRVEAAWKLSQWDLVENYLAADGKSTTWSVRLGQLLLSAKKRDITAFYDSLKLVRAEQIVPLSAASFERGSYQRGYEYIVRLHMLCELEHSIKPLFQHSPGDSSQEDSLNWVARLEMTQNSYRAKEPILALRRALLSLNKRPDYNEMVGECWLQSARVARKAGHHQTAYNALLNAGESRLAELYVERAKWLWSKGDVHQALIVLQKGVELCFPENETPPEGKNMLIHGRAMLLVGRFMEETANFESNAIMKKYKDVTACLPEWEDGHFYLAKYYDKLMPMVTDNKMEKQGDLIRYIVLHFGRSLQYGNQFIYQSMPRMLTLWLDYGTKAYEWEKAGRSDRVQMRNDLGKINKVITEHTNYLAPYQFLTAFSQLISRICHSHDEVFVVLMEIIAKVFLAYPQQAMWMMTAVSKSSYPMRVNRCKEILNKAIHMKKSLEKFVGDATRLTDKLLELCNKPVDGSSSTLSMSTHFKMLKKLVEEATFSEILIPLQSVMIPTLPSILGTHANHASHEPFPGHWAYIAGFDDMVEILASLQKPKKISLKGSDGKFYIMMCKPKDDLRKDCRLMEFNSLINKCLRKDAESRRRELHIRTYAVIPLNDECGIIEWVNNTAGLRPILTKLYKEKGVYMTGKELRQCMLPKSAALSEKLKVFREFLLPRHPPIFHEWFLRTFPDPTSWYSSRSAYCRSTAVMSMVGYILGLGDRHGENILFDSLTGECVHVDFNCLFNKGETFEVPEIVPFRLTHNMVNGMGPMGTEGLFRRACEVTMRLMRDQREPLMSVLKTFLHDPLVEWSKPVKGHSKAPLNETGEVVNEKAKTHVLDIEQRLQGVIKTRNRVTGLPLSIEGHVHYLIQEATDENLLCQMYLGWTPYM
TEST_DETAILS: ATR Inhibition Assay (radioactive-phosphate incorporation)
CONDITION_INFO: Ki(app); 5 nM full-length ATR, 10 μM ATP, 800 μM target peptide, 25° C.
pKi: −log10 of the molar value.
MEASURED_METRIC: pKi

INSERT INTO measurements (molecule, value) VALUES
  ('CC(C)S(=O)(=O)c1ccc(-c2cnc3[nH]cc(-c4cncc(S(C)(=O)=O)c4)c3n2)cc1 [Compound I-48]', '7.30 to 8.00'),
  ('CC(C)S(=O)(=O)c1ccc(-c2cnc3[nH]cc(-c4ccccc4C(N)=O)c3n2)cc1 [Compound I-18]', '< 7.30'),
  ('COc1ccc(-c2c[nH]c3ncc(-c4ccc(S(=O)(=O)C(C)C)cc4)nc23)cc1 [Compound I-29]', '< 7.30'),
  ('COc1cc(-c2c[nH]c3ncc(-c4ccc(S(=O)(=O)C(C)C)cc4)nc23)ccn1 [Compound I-33]', '≥ 8.00'),
  ('CC(C)S(=O)(=O)c1ccc(-c2cnc3[nH]cc(-c4cn(S(=O)(=O)c5ccccc5)c5ccccc45)c3n2)cc1 [Compound I-59]', '< 7.30');

### Prompt For the molecule CC(C)S(=O)(=O)c1ccc(-c2cnc3[nH]cc(-c4ccc(C(=O)O)s4)c3n2)cc1 [Compound I-62] , what pKi is on record?
### Response ≥ 8.00

### Prompt Give its pKi value. Item: CC(C)S(=O)(=O)c1ccc(-c2cnc3[nH]cc(-c4ccc(F)nc4)c3n2)cc1 [Compound I-23]
### Response 7.30 to 8.00

Source listed as patent US8623869B2.
